Numbers sourced from PubChem BioAssay.

- assayProtocol: COS7 lysate on small-molecule microarray, probe aHis, 635 nm (AID 1123);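 note: z-score combines 667nm fluorescence intensity with signal-to-noise per printed compound spot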
- setupConditions: COS7 cell lysate, fluorescence, higher = more signal
Listed next: entries and their corresponding composite z-score.

# molecule, composite z-score
data = [
    ("CCOC(=O)[C@H](CC(C)C)NC(=O)CCC1CC(OC(=O)NCc2cccc3ccccc23)CC2(CCCC(COC(=O)NCCc3ccccc3OC)O2)O1 (stereo partly drawn)", 0.398),
    ("C=CCNC(=O)[C@H]1[C@@H]2C(=O)O[C@@H](c3ccccc3)[C@@H](c3ccccc3)N2[C@@H](c2ccc(O)cc2)[C@]12C(=O)N(C(=O)OCCOC)c1ccc(C#CC3=CCCCC3)cc12", 2.23),
    ("CN(C)CCCNC(=O)[C@@H]1c2ccccc2C(=O)N(Cc2ccccc2)[C@H]1c1ccc(CO)cc1", 0.662),
]

###

- testedSystem: Fibroblast growth factor 10 (Homo sapiens)
- assayProtocol: FGF10 binders on small-molecule microarrays, primary screen, biochemical, small-molecule microarray, 635 nm fluorescence (AID 1102)
- setupConditions: FGF10 binding, fluorescence 635 nm, higher = more signal
measuredMetric: composite z-score

# smilesStr, recordedNumber
records = [
    ("COC(=O)[C@@]1(Cc2ccc(OC)cc2)[C@H]2c3cc(C(=O)N4CCCC4)n(Cc4cc(F)c(F)c(F)c4)c3C[C@H]2CN1C(=O)c1ccccc1", 1.15),
    ("CCN1C(=O)[C@H]2[C@H]3[C@H](O)[C@H](O)CC(=NOCc4ccccc4)[C@H]3CC[C@H]2C1=O", 0.47),
    ("O=C1[C@H]2[C@H]3[C@H](O)[C@H](O)CC(=NOCc4ccccc4)[C@@H]3CC[C@H]2C(=O)N1C1CCCCC1", -0.069),
    ("CC(=O)OC[C@H]1O[C@H](CCON=C(C)CCC(=O)OC[C@H]2O[C@H](C#Cc3ccccc3)C=C[C@@H]2Oc2ccc(C)cc2)C=C[C@@H]1OC(C)=O", 0.167),
]

###

- assayProtocol: MM1S myeloma cell viability, profiling panel, resazurin fluorescence, basal, 24 h, PK04 Diversity Set (AID 1174);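 note: MM1S multiple myeloma cell line; test concentration not given here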
- setupConditions: higher = more signal, called active from +8 up or from −8 down
Assign class by z-score: not lower than -0.4 means satisfied; lower than -0.4 means not satisfied.

# molecule, categoryLabel
measured = [
    ("COC(=O)C1=CCC(c2cccc(Cl)c2)O1 (stereo not given)", "satisfied"),
    ("CC(=O)O[C@H]1C2=C(C(=O)[C@@H]3O[C@@H]31)[C@H]1C(C)O[C@@H]2[C@@]23C(=O)[C@@H]4O[C@@H]4[C@@H](O)C2=CO[C@H](C)[C@@H]13 (stereo not given in full)", "not satisfied"),
    ("CCOC(=O)C1=CCC(c2cc3ccccc3[nH]2)NC1 (stereo not given)", "not satisfied"),
    ("O=C1[C@H]2[C@H]3[C@H](O)[C@H](O)CC(=NO[C@@H]4O[C@H](CO)[C@@H](O)[C@H](O)[C@H]4O)[C@H]3CC[C@H]2C(=O)N1Cc1ccccc1", "satisfied"),
    ("Cc1ccc(S[C@]2(C(=O)O)CC(=O)N(Cc3ccccc3)[C@@H]2c2ccc(CO)cc2I)cc1", "not satisfied"),
    ("COc1ccc(CCNC(=O)[C@@H]2c3ccccc3C(=O)N(c3ccc(C)cn3)[C@H]2c2ccc(CO)cc2)cc1", "not satisfied"),
    ("O=C1[C@H]2[C@H]3[C@H](O)[C@H](O)CC(=NOC[C@@H](O)COCc4ccco4)[C@H]3CC[C@H]2C(=O)N1Cc1ccc2c(c1)OCO2", "satisfied"),
    ("[N-]=[N+]=Nc1ccccc1C[C@@]1(C(N)=O)N=C(c2ccc(OCCCO)cc2)O[C@@H]1c1ccccc1", "not satisfied"),
    ("O=C1[C@H]2[C@H]3[C@H](O)[C@H](O)CC(=NOCc4ccccc4)[C@H]3CC[C@H]2C(=O)N1C[C@@H]1CCCO1", "satisfied"),
    ("C[C@H](c1ccccc1)N1C(=O)[C@H]2[C@@H]3C(=CC[C@H]2C1=O)C(=O)[C@H]1O[C@H]1[C@H]3O", "not satisfied"),
    ("CN1C(=O)C2C(C1=O)C1C=C(CCCO)C2C(c2ccc(CN3CCCC3)cc2)N1C (stereo not given)", "not satisfied"),
    ("COc1ccc(COC(=O)NN=C2C[C@@H](O)[C@@H](O)[C@@H]3[C@@H]4C(=O)N(Cc5ccc6c(c5)OCO6)C(=O)[C@@H]4CC[C@@H]23)cc1", "satisfied"),
    ("O=C1[C@H]2[C@H]3[C@H](O)[C@H](O)CC(=NO[C@@H]4O[C@H](CO)[C@@H](O)[C@H](O)[C@H]4O)[C@H]3CC[C@H]2C(=O)N1C1CCCCC1", "not satisfied"),
    ("COc1ccc(O[C@H]2C=C[C@@H](c3ccccc3)O[C@@H]2COC(=O)CCC(C)=NOCC[C@@H]2C=C[C@H](OC(C)=O)[C@@H](COC(C)=O)O2)cc1", "satisfied"),
    ("CN1C(=O)C2C=CC(C(O)C(c3ccccc3)c3ccccc3)N(NC(=O)OC(C)(C)C)C2C1=O (stereo not given)", "not satisfied"),
    ("COc1ccc(O[C@@H]2[C@H](O)CO[C@H]2C=CC#Cc2ccccc2)cc1", "satisfied"),
    ("CCN1C(=O)[C@H]2[C@H]3[C@H](O)C=CC(=O)[C@@H]3CC[C@H]2C1=O", "satisfied"),
    ("CCN1C(=O)[C@H]2[C@H]3[C@H](O)[C@H](O)CC(=NOC[C@@H](C)[C@H](OCc4ccccc4)C(C)C)[C@@H]3CC[C@H]2C1=O", "not satisfied"),
    ("CCOC(=O)CCN1C(=O)[C@H]2[C@H]3[C@H](O)[C@H](O)CC(=NOC[C@@H](O)COCc4ccco4)[C@@H]3CC[C@H]2C1=O", "not satisfied"),
    ("COC(=O)[C@]1(CO)N=C(c2ccc(OCCCO)cc2)O[C@@H]1c1ccccc1N=[N+]=[N-]", "satisfied"),
    ("N#Cc1ccc(NN2C(C(O)c3cccc4ccccc34)C=CC3C(=O)N(c4ccccc4)C(=O)C32)cc1 (stereo not given)", "not satisfied"),
    ("Cc1cc2c(nc1C)CCCN2CC(O)CN1CCN(C)CC1 (stereo not given)", "not satisfied"),
    ("CC(CCN1CCc2nc(-c3ccccc3)c(-c3ccccc3)cc2C1)=NO[C@@H](C)c1cn([C@H](CO)Cc2ccccc2)nn1", "not satisfied"),
    ("Cn1c(=O)n2n(c1=O)[C@H]1[C@H](O)[C@@H]3O[C@@H]3C(=NOC[C@@H](O)COCc3ccco3)[C@H]1CC2", "not satisfied"),
    ("CS(=O)(=O)CCOC(=O)C1=CC(CCCO)=CC(c2cccs2)N(Cc2cccc(OC(F)(F)F)c2)C=C1C(=O)OCCS(C)(=O)=O (stereo not given)", "not satisfied"),
    ("COC(=O)[C@H](C)NC(=O)CCC1CC(OC(=O)NCc2ccc3c(c2)OCO3)CC2(CCCC(COC(=O)NCCOc3ccccc3)O2)O1 (stereo not given in full)", "not satisfied"),
    ("COCCOC(=O)N1C(=O)[C@@]2(c3cc(C#Cc4ccc(OC)cc4)ccc31)[C@H](C(=O)N1CCN(c3ncccn3)CC1)[C@H]1C(=O)O[C@H](c3ccccc3)[C@H](c3ccccc3)N1[C@@H]2c1ccc(OCCO)cc1", "satisfied"),
    ("O=C1[C@H]2[C@H]3[C@H](O)[C@H](O)CC(=NOC[C@@H](O)COCc4ccco4)[C@@H]3CC[C@H]2C(=O)N1c1ccc(F)cc1F", "satisfied"),
    ("COC(=O)CC=C[C@H](C)[C@@H](OCc1ccccc1Br)C(C)C", "not satisfied"),
]

###

- testedSystem: Torsin-1A (Homo sapiens)
- assayProtocol: small-molecule binders of mutant TOR1A in lysate, primary screen, cell lysate, small-molecule microarray, COS7 lysate, 635/667 nm fluorescence (AID 1150);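 note: score pools 667 nm emission and signal to noise measuring lysate protein binding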
- setupConditions: COS7 hTOR1A mutant lysate, 635 nm fluorescence, higher = more signal
Listed next: entries and their corresponding composite z-score.

# smilesStr, composite z-score
data = [
    ("CC(CCC(=O)OC[C@H]1O[C@H](C#Cc2ccccc2)C=C[C@@H]1Oc1ccc(C)cc1)=NOC[C@@H](O)COCc1ccco1", -5.2),
    ("COCCOC(=O)N1C(=O)[C@@]2(c3cc(C#Cc4ccc(OC)cc4)ccc31)[C@H](c1ccc(O)cc1)N1[C@H](c3ccccc3)[C@H](c3ccccc3)OC(=O)[C@H]1[C@@H]2C(N)=O", 0.825),
    ("CC(C)C[C@@H]1NC(=O)[C@H]2C[C@@H](C(=O)NCCCCCCN(C)C)[C@@H](c3cccc(OCCO)c3)N2C1=O", 1.32),
]

###

- assayProtocol: CREB reporter modulators without forskolin, primary screen, cell-based, PC12, CRE-LacZ reporter, unstimulated (AID 1145)
- setupConditions: no forskolin, luminescence, 4.5 h, higher = more signal, called active from +8 up or from −8 down
Assign class by z-score: not lower than 3 means yes (1); lower than 3 means no (0).

# smilesStr, categoryLabel
rows = [
    ("COC(=O)[C@H](C)NC(=O)[C@@H](C)CO", "no (0)"),
    ("CCOC(=O)NN=C1C[C@@H](O)[C@@H](O)[C@@H]2[C@@H]3C(=O)N(C4CCCCC4)C(=O)[C@@H]3CC[C@H]12", "no (0)"),
    ("CCCCC(=C=CC[C@H](O)c1ccccc1OCCO)C[C@H](O)COCc1ccccc1", "yes (1)"),
    ("COC(=O)CC=C[C@H](C)[C@H](CO)NS(=O)(=O)c1ccc(C)cc1", "no (0)"),
    ("CC(C)OC(=O)C=C1C[C@@H](c2ccc(C#N)cc2)O[C@@H](c2ccc(C#N)cc2)O1", "no (0)"),
]
